Just for reference, the supplement of paper PMC9170038 is where these values come from.

System: MS2 coat protein
Test: apparent KD of MS2 coat protein, switch OFF state (with FMN for OFF switches, without FMN for ON switches); designed switch direction (-1 OFF switch, 1 ON switch): -1; higher = weaker reporter binding
Conditions: FMN input: 0 or 200 uM; Eterna round: R93 (includes R88 designs)
Kindly note that classification relies on apparent KD of MS2 coat protein with these boundaries: lower bin: < 30 nM; middle bin: ≥ 30 nM and < 60 nM; upper bin: ≥ 60 nM

[
  {
    "biopolymer_sequence": "AGGGAACAUGAGGAUCACCCAUGUGAGGAUAUGCUAUGGAAAUAAAAAAUAAAACAUAGCAGAAGGCAUAAAAA [Mat - Exclusion 1 - Eli mod - D39]",
    "target_system": "MS2 coat protein",
    "group_label": "middle bin"
  }
]

Let's switch to this sequence now.
Could you place AUAAAUCGAGGAUAUACAUGAGGAUCACCCAUGUAAAAAAAAAAAAAAUCCUCAGGAAGUAGAAGGCGAAAUAA [JR_Exc003_Sub018] in its proper category? Many thanks. lower bin

----------
System: MS2 coat protein
Test: apparent KD of MS2 coat protein; designed switch direction (-1 OFF switch, 1 ON switch): -1; higher = weaker reporter binding
Conditions: input ligand: none
# label = satisfied if apparent KD of MS2 coat protein >= 0.03 µM else not satisfied

[
  {
    "biopolymer_sequence": "GUGCAACAUGAGGAUCACCCAUGUUAGGAUAUGUCCUUGGAGACGCACUAGCUCUGAGACAGAAGGGACAGAGG [Eternabot (Original) Solution 34] (Eterna round: R97, puzzle: Exclusion 1)",
    "target_system": "MS2 coat protein",
    "group_label": "satisfied"
  }
]

Tell me whether apparent KD of MS2 coat protein is at least 0.03 µM here: AGCGAUUCAGGAUAUACGGGUGGGCUGGAUCUUGGAGGAGUACAUGAGGAUCACCCAUGUAGAAGGGAAUUUUC [Eternabot (L2) Solution 35] (Eterna round: R97, puzzle: Exclusion 2) satisfied

Tell me whether apparent KD of MS2 coat protein is at least 0.03 µM here: UAUUACAAGCGAAGAUCCCACAUGAGGAUCACCCAUGUGCUCGUCUUAUAAGGUACUGUGACGAAAGUCACGGUACC [Sensor 3, v1 - 91 v16] (Eterna round: R97, puzzle: Sensor, turn-off variant 1) satisfied

Tell me whether apparent KD of MS2 coat protein is at least 0.03 µM here: AUCUUGAUAGGAUAUACAUGAGGAUCACCCAUGUCCCACCCGUUACCUCUGGCCCUAUGUAGAAGGAUCGUCUA [Exy#20] (Eterna round: R97, puzzle: Exclusion 3) satisfied

Tell me whether apparent KD of MS2 coat protein is at least 0.03 µM here: GCCUAUGUGGAGGAUAUCGACUUCGAAAGAAGUCGAGAAGGCCACACAUGAGGAUCACCCAUGUGGUGCCAGGC [Omei Ex6 H13] (Eterna round: R97, puzzle: Exclusion 6) satisfied

Tell me whether apparent KD of MS2 coat protein is at least 0.03 µM here: GAUGAGGUAGGAUAUACGAUAAUAUAGGGUAGAUAUAUAACACAUGAGGAUCACCCAUGUAGAAGGACCAGUAG [Mat - Exclusion 2 - Mod of my Tesla design - D66] (Eterna round: R96, puzzle: Exclusion 2) satisfied
